Assay Text: Volume of distribution at steady state in Sprague-Dawley rat at 0.5 mg/kg, iv
Type: ADME, organism-based
Test Settings: in vivo, read-out: Vdss
Readout Kind: Vd (L/kg)
One number for each entry, in L/kg.

Param item = CC(C)(C)[C@H](NC(=O)[C@H](Cc1ccncc1)NC(=O)CNC(=O)CC[C@H](NS(=O)(=O)c1ccc(Cl)c(C(F)(F)F)c1)C(=O)O)C(=O)Nc1ccc(C(=O)N2CCC(C(=O)N[C@H](CCCCN)C(=O)N3CC[C@H](N)C3)CC2)cc1 ; retrieve measured Vd.
0.179

====

Measured On: CYP2C19 (Homo sapiens, UniProt P33261)
Sequence (P33261 whole entry): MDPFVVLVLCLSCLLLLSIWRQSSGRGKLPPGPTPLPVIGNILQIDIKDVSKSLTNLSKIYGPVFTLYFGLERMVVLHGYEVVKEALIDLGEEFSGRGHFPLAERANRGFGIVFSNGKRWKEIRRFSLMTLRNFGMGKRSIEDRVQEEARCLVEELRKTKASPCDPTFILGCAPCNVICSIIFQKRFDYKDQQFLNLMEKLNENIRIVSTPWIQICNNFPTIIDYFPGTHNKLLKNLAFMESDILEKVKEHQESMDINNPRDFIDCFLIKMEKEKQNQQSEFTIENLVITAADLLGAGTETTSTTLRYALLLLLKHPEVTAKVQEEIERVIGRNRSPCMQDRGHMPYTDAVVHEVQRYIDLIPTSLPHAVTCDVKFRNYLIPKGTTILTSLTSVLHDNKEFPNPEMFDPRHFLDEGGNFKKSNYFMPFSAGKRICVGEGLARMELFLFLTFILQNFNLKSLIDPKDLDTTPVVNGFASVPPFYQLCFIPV
Assay Text: Inhibition of CYP2C19 in human liver microsomes at 10 uM by LC-MS/MS analysis relative to control
Type: ADME, Microsome
Readout Kind: inhibition at 10 µM (%)
Numbers only, in %.

Entry CC(C)(C)[C@H](NC(=O)[C@H](Cc1ccncc1)NC(=O)CNC(=O)CC[C@H](NS(=O)(=O)c1ccc(Cl)c(C(F)(F)F)c1)C(=O)O)C(=O)Nc1ccc(C(=O)N2CCC(C(=O)N[C@H](CCCCN)C(=O)N3CC[C@H](N)C3)CC2)cc1 has what inhibition at 10 µM?
-4.3

====

Assay Text: Total clearance in cynomolgus monkey at 0.25 mg/kg, iv
Type: ADME, organism-based, Macaca fascicularis
Test Settings: in vivo
Starred links: 1 amine or outer side, 2 acyl side, 3 side chain; linkers in the order of their positions; H or OH if unused. Non-standard residues stand in square brackets, D forms with d. Residues, ends and D or L forms follow the SMILES beside them. *: point of attachment. Benzenesulfonyl(4-Cl,3-CF3) = O=S(=O)(c1ccc(Cl)c(C(F)(F)F)c1)*; γGlu = O=C(O)[C@H](CCC(=O)[*:2])N[*:1]; 4Pal = N[C@@H](Cc1ccncc1)C(=O)O; Tle = CC(C)(C)[C@H](N)C(=O)O; β3hP = O=C(O)C[C@@H]1CCCN1
Readout Kind: clearance (mL/min/kg)
Numbers only, in mL/min/kg.

Can you look up the measured clearance of CC(C)(C)[C@H](NC(=O)[C@H](Cc1ccncc1)NC(=O)CNC(=O)CC[C@H](NS(=O)(=O)c1ccc(Cl)c(C(F)(F)F)c1)C(=O)O)C(=O)N1CCC[C@H]1CC(N)=O ({Benzenesulfonyl(4-Cl,3-CF3)-γGlu}-G[4Pal][Tle][β3hP]-NH2) for me?
24.5

Entry source: ChEMBL document CHEMBL5537178
